These measurements were taken from BindingDB's records for doi:10.1021/jm960093o.

Study target: Dimer of Gag-Pol polyprotein [489-587] (Human immunodeficiency virus 1)
Construct: 489-587
Protocol details: Protease Inhibition Assay
Experimental conditions: pH 5.6; 37 °C
Measurement name: IC50 (µM)
Give bare numbers, in µM.

# batch size: 2; output IC50 per entry
1. CC(C)(C)NC(=O)c1ccccc1NCC(O)Cc1ccc2ccccc2c1C(=O)NC(C)(C)C (centres undefined)
2. CC(C)N1CCC(CC(O)CCc2ccc3ccccc3c2C(=O)NC(C)(C)C)=C(C(=O)NC(C)(C)C)C1 (centres undefined)

[120, 70]
